- studySystem: MYC:MAX heterodimer (MYCbHLHZip, labelled MAXbHLHZip) (Homo sapiens, UniProt P01106)
- Construct: MYC:MAX heterodimer formation assay based on recombinant proteins
- Sequence (P01106 368-449 limits assumed, one chain of several): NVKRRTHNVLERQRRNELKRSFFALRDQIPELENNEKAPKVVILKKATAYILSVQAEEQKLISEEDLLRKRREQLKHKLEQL
- method: Assay 1A MYC:MAX heterodimer MST assay
- measurementSetup: thermophoresis shift of 1 μM labelled MAXbHLHZip with 1 μM MYCbHLHZip
- Method: FIG. 1: A) Microscale thermophoresis (MST) of fluorescently labeled MAX in a MYC:MAX heterodimer formation assay based on recombinant proteins. […] Fluorescence intensity of labeled MAXbHLHZip relative DMSO was plotted against Example 1 concentration. […] C) MYC binding response units (RU) plotted against Example 1 concentration from which an IC50 of Example 1 inhibition of MYC:MAX heterodimer formation is determined, summary of four experiments. […]
metricName: pKd
One number for each entry, as −log10 of the molar value.

**Q:** Reported pKd, molecule CCOc1ccc2nc3cc(/N=N/c4ccc(N)nc4N)ccc3c(N)c2c1 [Example 1, sulphate hydrate] : ____
**A:** 5.37
